- Tested on: OVCAR-4
- measurementDescription: NCI tumour cell line growth inhibition, 48 h
Activity calls are given as the source filed them. No stated cut-off is given here; in the data, active = GI50 up to about 1.1 µM and inactive = higher.
Possible outcomes: active, inactive

compound: CC(=O)C1=C(C)NC(=C(C#N)C#N)C(C#N)=C1
targetOfAssay: OVCAR-4
classAssignment: inactive
--
compound: Cc1ccc2c(c1)c(=O)c1c(NCCN(C)C)ccc3nnn2c31
targetOfAssay: OVCAR-4
classAssignment: inactive
--
compound: Cc1nnc2n1N=C(CC(=O)c1ccc(O)cc1O)CN2N
targetOfAssay: OVCAR-4
classAssignment: inactive
--
compound: COC(=O)c1cc2ccccc2c2nc3ccccc3c(Cl)c12
targetOfAssay: OVCAR-4
classAssignment: inactive
--
compound: Cc1c(-c2ccccc2)oc(=O)c2ccccc12
targetOfAssay: OVCAR-4
classAssignment: inactive
--
compound: CCC(C)N1CN(c2ccccc2)C2(CCN(CCCC(=O)c3ccc(F)cc3)CC2)C1=O (stereo not given)
targetOfAssay: OVCAR-4
classAssignment: inactive
--
compound: CCCCCCCCCc1cc(=O)c2c(O)cc(O)cc2o1
targetOfAssay: OVCAR-4
classAssignment: inactive
--
compound: Nc1nc(=O)c2c([nH]1)NCC(CNc1ccc(C(=O)N[C@@H](CCC(=O)O)C(=O)O)cc1)N2C=O (stereo not given in full)
targetOfAssay: OVCAR-4
classAssignment: inactive
--
compound: CN(CCc1ccccn1)c1nc(=[N+](C)C)ss1
targetOfAssay: OVCAR-4
classAssignment: inactive
--
compound: Oc1c(C(Nc2cccc3cccnc23)c2ccccc2)ccc2cccnc12 (stereo not given)
targetOfAssay: OVCAR-4
classAssignment: inactive
--
compound: CC(N)Cc1cccc(C(F)(F)F)c1 (stereo not given)
targetOfAssay: OVCAR-4
classAssignment: inactive
--
compound: C#CCNC(=O)NCCCC(NC(C)=O)C(=O)NCc1ccccc1 (stereo not given)
targetOfAssay: OVCAR-4
classAssignment: inactive
--
compound: O=C(/C=C/c1ccccc1)CC(=O)CCC(=O)Nc1ccc(Cl)cc1
targetOfAssay: OVCAR-4
classAssignment: inactive
--
compound: Nc1ccc(Cc2c(N)[nH]c(=O)[nH]c2=O)cc1
targetOfAssay: OVCAR-4
classAssignment: inactive
--
compound: CC(C)(C)C1CCC2c3c([nH]c4ccccc34)C3C(=O)N(c4ccc5c(c4)C(=O)c4ccccc4C5=O)C(=O)C3C2C1 (stereo not given)
targetOfAssay: OVCAR-4
classAssignment: inactive
--
compound: O=C(NC(=S)Nc1ccccc1)c1ccc([N+](=O)[O-])cc1
targetOfAssay: OVCAR-4
classAssignment: inactive
--
compound: Cc1nc2c(-c3ccccc3)[nH]c(C)c2c(=O)o1
targetOfAssay: OVCAR-4
classAssignment: inactive
--
compound: O=C(NCP(=O)(Oc1ccccc1)Oc1ccccc1)OCc1ccccc1
targetOfAssay: OVCAR-4
classAssignment: inactive
--
compound: CCOC(=O)N(c1ccccc1)c1cc(=O)n2ccccc2n1
targetOfAssay: OVCAR-4
classAssignment: inactive
--
compound: COC1[C@H](NC(=O)OC(C)(C)C)C(=O)N1Cc1ccccc1 (stereo not given in full)
targetOfAssay: OVCAR-4
classAssignment: inactive
--
compound: COc1cc(C(C)c2cc3c(cc2OCCN)OCO3)cc(OC)c1OC (stereo not given)
targetOfAssay: OVCAR-4
classAssignment: inactive
--
compound: COC(=O)C(Cc1ccccc1)NC(=O)CSc1nnc(COc2ccc(Cl)cc2)n1-c1ccccc1 (stereo not given)
targetOfAssay: OVCAR-4
classAssignment: inactive
--
compound: COC(=O)/C(C#N)=C1\CCC(O)N1 (stereo not given)
targetOfAssay: OVCAR-4
classAssignment: inactive
--
compound: CC(Nc1ccc(Cl)cc1)c1ccncc1 (stereo not given)
targetOfAssay: OVCAR-4
classAssignment: inactive
--
compound: [O-][N+]1=C2CCC/C(=N/O)C2(O)C2CCCCC21N1CCOCC1 (stereo not given)
targetOfAssay: OVCAR-4
classAssignment: inactive
--
compound: C/C(=C1/CCCC2(N=NCC2c2ccccc2)C1=O)c1ccccc1 (stereo not given)
targetOfAssay: OVCAR-4
classAssignment: inactive
--
compound: CCCC(=O)Nc1ccc(O)c2c1C1CCCCCC21 (stereo not given)
targetOfAssay: OVCAR-4
classAssignment: inactive
--
compound: O=c1[nH]c(=O)n(C2CC(O)C(COP(=O)(O)OC3CC(n4cc(F)c(=O)[nH]c4=O)OC3COP(=O)(O)OC3CC(n4cc(F)c(=O)[nH]c4=O)OC3COP(=O)(O)OC3CC(n4cc(F)c(=O)[nH]c4=O)OC3COP(=O)(O)OC3CC(n4cc(F)c(=O)[nH]c4=O)OC3COP(=O)(O)OC3CC(n4cc(F)c(=O)[nH]c4=O)OC3COP(=O)(O)OC3CC(n4cc(F)c(=O)[nH]c4=O)OC3COP(=O)(O)OC3CC(n4cc(F)c(=O)[nH]c4=O)OC3COP(=O)(O)OC3CC(n4cc(F)c(=O)[nH]c4=O)OC3COP(=O)(O)OC3CC(n4cc(F)c(=O)[nH]c4=O)OC3CO)O2)cc1F (stereo not given)
targetOfAssay: OVCAR-4
classAssignment: active
--
compound: O=C1CC2CC(CC3(CO3)C2)C1F (stereo not given)
targetOfAssay: OVCAR-4
classAssignment: inactive
--
compound: ClCCCN1CCN(CCCl)CC1
targetOfAssay: OVCAR-4
classAssignment: inactive
--
compound: CC(O)CCCOC(c1ccccc1)(c1ccccc1)c1ccccc1 (stereo not given)
targetOfAssay: OVCAR-4
classAssignment: inactive
--
compound: CC1(F)C=CC(=O)C=C1
targetOfAssay: OVCAR-4
classAssignment: inactive
--
compound: O=S(=O)(c1ccccc1)n1c(C(O)c2ccncc2)cc2ccccc21 (stereo not given)
targetOfAssay: OVCAR-4
classAssignment: inactive
--
compound: COc1cc(C(=O)O[C@H]2CCC3CCC2N3C)cc(OC)c1OC (stereo not given in full)
targetOfAssay: OVCAR-4
classAssignment: inactive
--
compound: COc1ccc(C(=O)Nc2ccccc2C#N)cc1
targetOfAssay: OVCAR-4
classAssignment: inactive
--
compound: CSC1=C(C#N)C(=O)N(c2ccc(Cl)cc2)C(=O)C1C#N (stereo not given)
targetOfAssay: OVCAR-4
classAssignment: inactive
--
compound: Clc1ccc(COC(Cn2ccnc2)c2ccc(Cl)cc2Cl)c(Cl)c1 (stereo not given) [MICONAZOLE NITRATE]
targetOfAssay: OVCAR-4
classAssignment: inactive
--
compound: COc1ccc(N2C(=O)C3c4[nH]c5ccc(OC)cc5c4C4CCC(C(C)(C)C)CC4C3C2=O)cc1 (stereo not given)
targetOfAssay: OVCAR-4
classAssignment: inactive
--
compound: CCCCCCCCCCCCCCCCCCNc1ccn(C2OC(COP(=O)(O)OCC3OC(n4cc(F)c(NCCCCCCCCCCCCCCCCCC)nc4=O)CC3O)C(O)C2O)c(=O)n1 (stereo not given)
targetOfAssay: OVCAR-4
classAssignment: inactive
--
compound: O=C1NC2=C(CCCCC/C2=N\O)C12CCCCCC2
targetOfAssay: OVCAR-4
classAssignment: inactive

* * *

Reported values of GI50 for individual entries
- Test system: NCI-H226
- measurementDescription: NCI tumour cell line growth inhibition, 48 h
Calls of active or inactive are those of the source. Rule as the data show it: active = GI50 up to about 1.1 µM and inactive = higher.

compound: O=C1C/C(Br)=C\c2ccccc2-c2ccccc21
targetOfAssay: NCI-H226
GI50: 2.66 µM (inactive)
//
compound: C=C(C)C(O)CCC1(C)C=Cc2c(c(C)cc3c2[nH]c2ccccc23)O1 (stereo unspecified)
targetOfAssay: NCI-H226
GI50: 7.01 µM (inactive)
//
compound: O=[N+]([O-])/C(C(Cl)=C(Cl)Cl)=C1\NCCS1
targetOfAssay: NCI-H226
GI50: > 100 µM (inactive)
//
compound: CCOC(=O)C(=O)/C(=C/NC(=S)c1ccncc1)C(=O)OCC
targetOfAssay: NCI-H226
GI50: > 100 µM (inactive)
//
compound: C1COCCN1.CN(C)c1ccc(-c2c(C#N)c(N)nc(S)c2C#N)cc1
targetOfAssay: NCI-H226
GI50: 22.6 µM (inactive)
//
compound: OC1c2[nH]c3ccccc3c2CCN2CCCCC12 (stereo unspecified)
targetOfAssay: NCI-H226
GI50: > 100 µM (inactive)
//
compound: CC(C)(C)C1CCC2c3c([nH]c4ccccc34)C3C(=O)N(c4ccc5c(c4)C(=O)c4ccccc4C5=O)C(=O)C3C2C1 (stereo unspecified)
targetOfAssay: NCI-H226
GI50: > 100 µM (inactive)
//
compound: Nc1ccn(CCO)c(=O)n1
targetOfAssay: NCI-H226
GI50: > 100 µM (inactive)
//
compound: CC(O)CCCOC(c1ccccc1)(c1ccccc1)c1ccccc1 (stereo unspecified)
targetOfAssay: NCI-H226
GI50: 16.1 µM (inactive)
//
compound: COc1cc2oc(=O)cc(C)c2c(OC)c1O
targetOfAssay: NCI-H226
GI50: > 100 µM (inactive)
//
compound: C[C@@]12[Se]c3ccccc3[C@]1(C)[Se]c1ccccc12
targetOfAssay: NCI-H226
GI50: > 100 µM (inactive)

Cited source: ChEMBL document CHEMBL1201862
